Molecular target: monoclonal antibody DD-6
Experiment: Competition ELISA with monoclonal antibody DD-6
Type: binding, Biozzi mice
Conditions: competitor vs monoclonal antibody DD-6; plate coated with A-triCDD-RSA
I50 (inhibits antibody binding by 50%) overview

compound="ClC1=C(Cl)C2(Cl)C3C(Cl)C(Cl)CC3C1(Cl)C2(Cl)Cl (stereo not drawn) [Chlordane]" value="> 2000 ng"

Record summary for O=[N+]([O-])c1cc(Cl)cc(Cl)c1O [2,4-Dichloro-6-nitrophenol, 2,4-Dichloro-6-nitro-phenol] : reported I50 (inhibits antibody binding by 50%) = > 2000 ng

Record summary for Brc1cc2c(cc1Br)Oc1cc(Br)c(Br)cc1O2 [2,3,7,8-tetra-Bromo-DD] : reported I50 (inhibits antibody binding by 50%) = > 2 ng
